src = PubChem BioAssay

- experimental.system: Calcium-activated potassium channel subunit alpha-1 (Homo sapiens) + Leucine-rich repeat-containing protein 26 (Homo sapiens) (UniProt Q12791+Q2I0M4)
- Sequence (Q2I0M4 whole entry, looked up, one chain of several): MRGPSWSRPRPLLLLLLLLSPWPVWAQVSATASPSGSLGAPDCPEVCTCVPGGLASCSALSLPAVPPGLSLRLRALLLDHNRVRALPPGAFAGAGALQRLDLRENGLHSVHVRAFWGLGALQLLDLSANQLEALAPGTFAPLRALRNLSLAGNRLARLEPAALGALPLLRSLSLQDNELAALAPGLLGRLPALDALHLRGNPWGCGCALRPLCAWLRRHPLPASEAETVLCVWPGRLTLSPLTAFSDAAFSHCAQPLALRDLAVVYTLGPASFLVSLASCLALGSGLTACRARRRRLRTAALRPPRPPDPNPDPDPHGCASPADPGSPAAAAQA
- method: BK channel mutant inhibitors and activators – cell-based, U2OS BacMam, thallium flux, beta subunits, selectivity assay, profiling panel (AID 1259406);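 further: initial slope of Thallos dye fluorescence rise after thallium is added; log ratio against the mean of 0.3% DMSO vehicle wells on the same plate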
- assay.context: U2OS BacMam BK variants, F380Y/Slo1WT/gamma1, at 30 µM
Activity calls are given as the source filed them.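 How the source made its calls: active means thallium flux through the channel raised or lowered by more than 3 SD from vehicle-only wells, actives on both sides; inactive means the rest.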
Your reply should match one of these outcome classes. 1 (yes) for active, 0 (no) for inactive

Cc1cccc(C)c1OCC(C)N (stereo not given)    0 (no)
CC1CCN(CCCC(=O)c2ccc(F)cc2)CC1    0 (no)
Nc1nnc(-c2cccc(Cl)c2Cl)c(N)n1    0 (no)
CCN(CC)CC1CCCCN1CC(=O)N1c2ccccc2C(=O)Nc2cccnc21 (stereo not given)    0 (no)
COc1cc2c(cc1OC)C(=O)C(CC1CCN(Cc3ccccc3)CC1)C2 (stereo not given)    0 (no)
CCOC(=O)O[C@]1(C(=O)OCCl)CC[C@H]2[C@@H]3CCC4=CC(=O)C=C[C@]4(C)[C@H]3[C@@H](O)C[C@@]21C    0 (no)
CC(=O)NS(=O)(=O)c1ccc(N)cc1    0 (no)
COc1cc(C)nc(-n2nc(C)cc2OC)n1    0 (no)
O=C(O)/C=C/c1ccc(Cn2ccnc2)cc1    0 (no)
CC(C)(C(=O)c1cccnc1)c1cccnc1    0 (no)

Incoming: Kindly provide the recorded test outcome for the following compound: `Nc1nc(N)nc(-c2cc(Cl)ccc2Cl)n1`
Outgoing: 0 (no)

Incoming: Also CCOc1cc(N)c(Cl)cc1C(=O)NCC1CN(Cc2ccc(F)cc2)CCO1 (stereo not given) , if possible.
Outgoing: 0 (no)

Incoming: CCc1c(C)[nH]c2c1C(=O)C(CN1CCOCC1)CC2 (stereo not given) , same question.
Outgoing: 0 (no)

Incoming: And what about the compound `CC(C)(C#N)c1cc(Cn2cncn2)cc(C(C)(C)C#N)c1` ?
Outgoing: 0 (no)

Incoming: How about `CNNCc1ccc(C(=O)NC(C)C)cc1` ?
Outgoing: 0 (no)

Incoming: Moving on to the next compound: `CC1(C)S[C@@H]2[C@H](N=CN3CCCCCC3)C(=O)N2[C@H]1C(=O)O`
Outgoing: 0 (no)
